Provenance of the data: patent US20250171550A1

Can you tell me percent of cells in gate R3 for the items I'm about to list?
TESTED SYSTEM: T1, Biotin-BCMA-Fc (human, UniProt Q02223 1-54, labelled with NHS-biotin, sites not stated)
T1 construct: also called Biotin-BCMA-Fc protein; labeled BCMA-Fc recombinant protein; not shown: Fc part
T1 sequence (looked up): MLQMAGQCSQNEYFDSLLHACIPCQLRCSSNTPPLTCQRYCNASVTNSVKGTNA
METHOD SUMMARY: flow cytometry of the induced yeast single clone displaying the VHH, Biotin-BCMA-Fc and PE-streptavidin
Record the value in %, omitting the unit from your answer.

Data request: Data request, read-out percent of cells in gate R3, for D10 (Fc fusion, also called single-domain antibody D10) VHH-Fc fusion chain: QVQLVESGGGLVQPGGSLRLSCAASGFSLNNYVIGWFRQAPGKDRDFVAAITRSDERQNDGVTYYRVSVKGRFTISRDNANDTVYLQMNSLKPEDTAIYYCAADPSLVFSPTPRYWGQGTLVTVSS
Data returned: 99.8

Data request: Could you do the same for single-domain antibody 48-11 (Fc fusion, Supernatant was used in flow cytometry, Protein A purified material in Biacore; not shown: human IgG1 Fc, ligated in series to the VHH (vector Lenti-hIgG1-Fc2)) QVQLVESGGGLVQAGGSLRLSCAASGHTPSNYAMGWFRQTPGKEREFVAAITWSAVTRDDAIPYYRTSVKGRFTISRDNAKNTVYLQMNSLKPEDTAVYYCAVDASLVMTPTPRYWGQGTQVTVSS , please?
Data returned: 98.4

Data request: Could you do the same for C6 (Fc fusion, also called single-domain antibody C6) VHH-Fc fusion chain: QVQLVESGGGLVETGSSLRLSCKSSGHSFSDYSLAWFRQAPGKEREFVAAITWSDVPRDDAVTYYRVDVKGRFTISRDNAKNTVYLQMNSLKPEDTAVYYCAVDASLVMTLTPRYWGQGTQVTVSS , please?
Data returned: 93.3

Data request: Could you do the same for C2 (Fc fusion, also called single-domain antibody C2) VHH-Fc fusion chain: QVQLVESGGGLVQAGGSLRLSCVASGLTFSNYAMGWFRQGPGKDRDFVAAITRSDERQNDGVTYYRVSVKGRFTISRDNANDTVYLQMNSLKPEDTAIYYCAADPSLVFSPTLRYWGQGTLVTVSS , please?
Data returned: 95.3
